Where these numbers come from: the NIST ThermoML archive (doi:10.1021/je301284x)

Study conditions: 323.15 K; 101.33 kPa; Liquid; Concentric cylinders viscometry
Attribute measured: viscosity (mPa·s)

> print(dat)
                                   compound  units.label  experimental.result
1  CCC[NH+](C)CCC.O=S(=O)([O-])C(F)(F)F [N-methyl-N-propylpropan-1-aminium trifluoromethanesulfonate]        mPa·s                 23.9
2    C=CC[NH+](C)CC=C.O=S(=O)([O-])C(F)(F)F        mPa·s                 19.7
3  CCC[NH+](C)C.O=S(=O)([O-])C(F)(F)F [N,N-dimethylpropan-1-aminium trifluoromethanesulfonate]        mPa·s                   18

====

Study conditions: 403.15 K; 101.33 kPa; Liquid
Attribute measured: electrical conductivity (S/m)

> print(dat)
                                   compound       attribute.measured  experimental.result
1  CCC[NH+](CC)CC.O=S(=O)([O-])C(F)(F)F [N,N-diethylpropan-1-aminium trifluoromethanesulfonate]  electrical conductivity                 2.88
2  CCC[NH+](C)CCC.O=S(=O)([O-])C(F)(F)F [N-methyl-N-propylpropan-1-aminium trifluoromethanesulfonate]  electrical conductivity                 3.18
3  C=CC[NH+](CC)CC.O=S(=O)([O-])C(F)(F)F [N,N-diethylprop-2-en-1-aminium trifluoromethanesulfonate]  electrical conductivity                 3.17
